assay: Solubility of the compound in JP1 fluid at pH 1.2; format: physicochemical
recorded_metric: solubility

- CC1(C)C(=O)N(c2ccc(NCCNC3CCOCC3)cc2)c2cc(Cl)ccc2-c2ccccc21: 83 µg/mL

[ask] Which solubility value belongs to CC1(C)C(=O)N(c2ccc(NCCNC3CCOCC3)cc2)c2cc(Cl)ccc2-c2cc(Cl)cnc21 ?
[reply] 570 µg/mL

[ask] What do you get for Cc1cnc2c(c1)-c1ccc(Cl)cc1N(c1ccc(NCCNC3CCOCC3)cc1)C(=O)C2(C)C ?
[reply] > 980 µg/mL

[ask] Param item: COc1ccc2c(c1)N(c1ccc(NCCNC3CCOCC3)cc1)C(=O)C(C)(C)c1ncc(Cl)cc1-2
[reply] 250 µg/mL

[ask] Same again, this time with CC1(C)C(=O)N(c2ccc(NCCNC3CCOCC3)cc2)c2cc(Cl)ccc2-c2cc(Cl)ccc21
[reply] 36 µg/mL

[ask] And the next one, CC1(C)C(=O)N(c2ccc(NCCNC3CCOCC3)cc2)c2cc(C#N)ccc2-c2cc(Cl)cnc21 ?
[reply] 990 µg/mL

[ask] # repeat for CC1(C)C(=O)N(c2ccc(NCCNC3CCOCC3)cc2)c2cc(F)ccc2-c2cc(Cl)cnc21
[reply] 960 µg/mL

[ask] Same lookup for CC1(C)C(=O)N(c2ccc(NCCNC3CCOCC3)cc2)c2cc(Cl)ccc2-c2cc(F)cnc21 , please.
[reply] 920 µg/mL

[ask] Here is the next molecule: Cc1ccc2c(c1)N(c1ccc(NCCNC3CCOCC3)cc1)C(=O)C(C)(C)c1ncc(Cl)cc1-2
[reply] 870 µg/mL

* * *

experiment: Plasma clearance in Sprague-Dawley rat at 1 mg/kg, iv by LC-MS/MS analysis; format: ADME, organism-based
recorded_metric: clearance (mL/min/kg)
Enter your answer as a number in mL/min/kg; do not include the unit.

[ask] Reported clearance for CC1(C)C(=O)N(c2ccc(NCCNC3CCOCC3)cc2)c2cc(Cl)ccc2-c2cc(Cl)cnc21 : what is it?
[reply] 39

Source of measurements: ChEMBL document CHEMBL4619754
